Numbers sourced from the kinase profiling compilation of Christmann-Franck et al. (2016).

molecular target: TNK2 (human); assay: KINOMEscan competition binding; conditions: compound 10.0 µM
EXPERIMENTAL ENDPOINT: kinase still bound, per cent of control (%)
Field: numeric (%). Do not append units.

Examples with answers:
[
  {
    "COMPOUND": "CNC(=O)Nc1ccc(-c2nc(N3CC4CCC(C3)O4)c3cnn(C4CCC5(CC4)OCCO5)c3n2)cc1",
    "READOUT UNIT": "%",
    "kinase still bound, per cent of control": 84
  },
  {
    "COMPOUND": "CC1=C(C(=O)Nc2cc3cn[nH]c3cc2F)C(c2ccc(C(F)(F)F)cc2)CC(=O)N1 (stereo not drawn)",
    "READOUT UNIT": "%",
    "kinase still bound, per cent of control": 88
  },
  {
    "COMPOUND": "CCN1CCN(Cc2ccc(NC(=O)c3ccc(C)c(/C=C/c4cnc5[nH]ccc5c4OC)c3)cc2C(F)(F)F)CC1",
    "READOUT UNIT": "%",
    "kinase still bound, per cent of control": 0.8
  }
]

Documented kinase still bound, per cent of control of N#Cc1cc(-c2ccnc(Nc3ccc(-n4cnc(-c5cccnc5)n4)cc3)n2)cc(N2CCOCC2)c1 : 61

Documented kinase still bound, per cent of control of COc1cc2c(Nc3ccc(NC(=O)c4ccccc4)cc3)ncnc2cc1OCCCN1CCOCC1 : 5.9

Documented kinase still bound, per cent of control of CCCS(=O)(=O)Nc1ccc(F)c(C(=O)c2c[nH]c3ncc(Cl)cc23)c1F : 8.2

====

molecular target: UniProtKB P04629; experiment: KINOMEscan competition binding; settings: compound 10.0 µM
Sequence (P04629 whole entry, looked up): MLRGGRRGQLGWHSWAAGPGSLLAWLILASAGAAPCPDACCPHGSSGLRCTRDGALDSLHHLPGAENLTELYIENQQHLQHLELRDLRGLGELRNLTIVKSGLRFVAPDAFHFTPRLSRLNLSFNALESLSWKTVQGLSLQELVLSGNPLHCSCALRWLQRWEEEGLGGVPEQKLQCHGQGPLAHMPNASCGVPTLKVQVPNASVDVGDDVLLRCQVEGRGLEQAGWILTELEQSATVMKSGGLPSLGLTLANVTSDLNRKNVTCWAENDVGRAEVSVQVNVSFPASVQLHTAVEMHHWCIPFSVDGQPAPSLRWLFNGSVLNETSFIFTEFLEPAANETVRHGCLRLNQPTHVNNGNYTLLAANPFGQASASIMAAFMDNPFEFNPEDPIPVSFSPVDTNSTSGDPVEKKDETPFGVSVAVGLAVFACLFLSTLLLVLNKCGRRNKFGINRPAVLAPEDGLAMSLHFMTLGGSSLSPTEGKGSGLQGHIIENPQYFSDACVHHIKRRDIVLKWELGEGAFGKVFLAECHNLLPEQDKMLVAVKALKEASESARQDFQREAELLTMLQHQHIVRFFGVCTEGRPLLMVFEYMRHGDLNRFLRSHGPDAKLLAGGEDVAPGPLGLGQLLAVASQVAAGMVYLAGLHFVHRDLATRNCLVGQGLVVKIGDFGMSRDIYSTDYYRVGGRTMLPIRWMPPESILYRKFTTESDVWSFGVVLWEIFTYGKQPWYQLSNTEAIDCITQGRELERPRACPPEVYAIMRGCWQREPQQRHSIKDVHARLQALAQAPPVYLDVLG
EXPERIMENTAL ENDPOINT: kinase still bound, per cent of control (%)
Field: numeric (%). Do not append units.

Examples with answers:
[
  {
    "COMPOUND": "N#C/C(=C1/Nc2ccccc2S1)c1ccnc(NCCc2cccnc2)n1",
    "EXPERIMENTAL ENDPOINT": "kinase still bound, per cent of control",
    "ASSAY RESULT": 57
  },
  {
    "COMPOUND": "CCOc1cc(N2CCC(O)CC2)ccc1Nc1ncc2c(n1)N(C)c1ccccc1C(=O)N2C",
    "EXPERIMENTAL ENDPOINT": "kinase still bound, per cent of control",
    "ASSAY RESULT": 100
  },
  {
    "COMPOUND": "CCc1nc(-c2cccc(C)c2)c(-c2ccnc(NC(=O)c3ccccc3)c2)s1",
    "EXPERIMENTAL ENDPOINT": "kinase still bound, per cent of control",
    "ASSAY RESULT": 100
  }
]

Documented kinase still bound, per cent of control of COc1cc(C)c(Sc2cnc(NC(=O)c3ccc(CNC(C)C(C)C)cc3)s2)cc1C(=O)N1CCN(C(C)=O)CC1 (stereo not drawn) : 20

Documented kinase still bound, per cent of control of CCCS(=O)(=O)Nc1ccc(F)c(C(=O)c2c[nH]c3ncc(Cl)cc23)c1F : 100

Documented kinase still bound, per cent of control of CC(=O)c1c(C)c2cnc(Nc3ccc(N4CCNCC4)cn3)nc2n(C2CCCC2)c1=O : 6.5

Documented kinase still bound, per cent of control of CC1=C(C(=O)Nc2cc3cn[nH]c3cc2F)C(c2ccc(C(F)(F)F)cc2)CC(=O)N1 (stereo not drawn) : 91

Documented kinase still bound, per cent of control of COc1ccc(N(C(=O)Oc2cc(C(=O)Nc3cccc(C(F)(F)F)c3)ccc2C)c2ccnc(Nc3ccc(N4CCN(C)CC4)cc3)n2)c(OC)c1 : 27

Documented kinase still bound, per cent of control of CNC(=O)Nc1ccc(-c2nc(N3CC4CCC(C3)O4)c3cnn(C4CCC5(CC4)OCCO5)c3n2)cc1 : 100

Documented kinase still bound, per cent of control of CCN(CCO)CCCOc1ccc2c(Nc3cc(CC(=O)Nc4cccc(F)c4)[nH]n3)ncnc2c1 : 6.8

Documented kinase still bound, per cent of control of COc1cc(N2CCC(C(N)=O)CC2)ccc1Nc1nc(N)c(Cl)c(Nc2ccccc2S(=O)(=O)C(C)C)n1 : 100

Documented kinase still bound, per cent of control of O=c1[nH]c2ccccc2n1C1CCN(Cc2ccc(-c3nc4cc5[nH]cnc5cc4nc3-c3ccccc3)cc2)CC1 : 100

====

target: RIOK1 (human) (UniProt Q9BRS2); experiment: KINOMEscan competition binding; settings: compound 10.0 µM
Sequence (Q9BRS2 whole entry, looked up): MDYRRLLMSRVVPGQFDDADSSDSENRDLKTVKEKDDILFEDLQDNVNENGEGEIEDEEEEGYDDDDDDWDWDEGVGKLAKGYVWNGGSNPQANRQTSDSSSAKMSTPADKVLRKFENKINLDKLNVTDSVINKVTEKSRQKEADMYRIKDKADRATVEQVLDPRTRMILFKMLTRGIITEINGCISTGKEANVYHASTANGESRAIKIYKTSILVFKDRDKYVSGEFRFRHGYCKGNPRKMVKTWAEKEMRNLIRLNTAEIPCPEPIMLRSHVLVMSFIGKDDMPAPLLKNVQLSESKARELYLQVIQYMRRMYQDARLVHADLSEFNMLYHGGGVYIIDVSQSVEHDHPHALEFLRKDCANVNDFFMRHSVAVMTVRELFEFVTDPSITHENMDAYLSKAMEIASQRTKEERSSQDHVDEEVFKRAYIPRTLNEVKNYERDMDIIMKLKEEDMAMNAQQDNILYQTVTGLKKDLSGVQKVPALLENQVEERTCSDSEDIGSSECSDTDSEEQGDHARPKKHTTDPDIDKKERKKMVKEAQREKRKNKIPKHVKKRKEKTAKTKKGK
EXPERIMENTAL ENDPOINT: kinase still bound, per cent of control (%)
Field: numeric (%). Do not append units.

Examples with answers:
[
  {
    "MOLECULE": "Cc1cn(-c2cc(C(=O)Nc3ccc(C)c(NC(=O)c4ccno4)c3)cc(C(F)(F)F)c2)cn1",
    "ASSAY RESULT": 100
  },
  {
    "MOLECULE": "COc1ccc(N(C(=O)Oc2cc(C(=O)Nc3cccc(C(F)(F)F)c3)ccc2C)c2ccnc(Nc3ccc(N4CCN(C)CC4)cc3)n2)c(OC)c1",
    "ASSAY RESULT": 100
  },
  {
    "MOLECULE": "CCN1CCN(Cc2ccc(NC(=O)c3ccc(C)c(/C=C/c4cnc5[nH]ccc5c4OC)c3)cc2C(F)(F)F)CC1",
    "ASSAY RESULT": 0.75
  },
  {
    "MOLECULE": "CCc1nc(-c2cccc(C)c2)c(-c2ccnc(NC(=O)c3ccccc3)c2)s1",
    "ASSAY RESULT": 100
  }
]

Documented kinase still bound, per cent of control of CC1=C(C(=O)Nc2cc3cn[nH]c3cc2F)C(c2ccc(C(F)(F)F)cc2)CC(=O)N1 (centres undefined) : 100

Documented kinase still bound, per cent of control of COc1cc2ncnc(Nc3cccc(Cl)c3)c2cc1OC : 65

Documented kinase still bound, per cent of control of COc1cc2c(Nc3ccc(NC(=O)c4ccccc4)cc3)ncnc2cc1OCCCN1CCOCC1 : 100

Documented kinase still bound, per cent of control of O=c1[nH]c2ccccc2n1C1CCN(Cc2ccc(-c3nc4cc5[nH]cnc5cc4nc3-c3ccccc3)cc2)CC1 : 76

Documented kinase still bound, per cent of control of CC(=O)c1c(C)c2cnc(Nc3ccc(N4CCNCC4)cn3)nc2n(C2CCCC2)c1=O : 38

====

biological target: NEK7 (human); assay: KINOMEscan competition binding; settings: compound 10.0 µM
Labelling field: enter Y if recorded kinase still bound, per cent of control is less than 90%. Enter N if it equals or exceeds that cut-off.

[
  {
    "COMPOUND": "CCN(CCO)CCCOc1ccc2c(Nc3cc(CC(=O)Nc4cccc(F)c4)[nH]n3)ncnc2c1",
    "LABEL": "N"
  },
  {
    "COMPOUND": "CNC(=O)Nc1ccc(-c2nc(N3CC4CCC(C3)O4)c3cnn(C4CCC5(CC4)OCCO5)c3n2)cc1",
    "LABEL": "N"
  },
  {
    "COMPOUND": "CCN1CCN(Cc2ccc(NC(=O)c3ccc(C)c(/C=C/c4cnc5[nH]ccc5c4OC)c3)cc2C(F)(F)F)CC1",
    "LABEL": "Y"
  },
  {
    "COMPOUND": "CCOc1cc(N2CCC(O)CC2)ccc1Nc1ncc2c(n1)N(C)c1ccccc1C(=O)N2C",
    "LABEL": "N"
  },
  {
    "COMPOUND": "COc1cc(N2CCC(C(N)=O)CC2)ccc1Nc1nc(N)c(Cl)c(Nc2ccccc2S(=O)(=O)C(C)C)n1",
    "LABEL": "N"
  }
]

kinase still bound, per cent of control under 90%? Item: CCCS(=O)(=O)Nc1ccc(F)c(C(=O)c2c[nH]c3ncc(Cl)cc23)c1F
Y

kinase still bound, per cent of control under 90%? Item: N#Cc1cc(-c2ccnc(Nc3ccc(-n4cnc(-c5cccnc5)n4)cc3)n2)cc(N2CCOCC2)c1
Y

kinase still bound, per cent of control under 90%? Item: COc1cc2c(Nc3ccc(NC(=O)c4ccccc4)cc3)ncnc2cc1OCCCN1CCOCC1
N

kinase still bound, per cent of control under 90%? Item: CC(=O)c1c(C)c2cnc(Nc3ccc(N4CCNCC4)cn3)nc2n(C2CCCC2)c1=O
Y

====

biological target: ROCK1 (human); assay: KINOMEscan competition binding; conditions: compound 10.0 µM
EXPERIMENTAL ENDPOINT: kinase still bound, per cent of control (%)
Field: numeric (%). Do not append units.

Examples with answers:
[
  {
    "QUERY SMILES": "C=CC(=O)Nc1ccc(C(=O)c2sc(Nc3ccc(N4CCN(C)CC4)cc3OC)nc2N)cc1",
    "EXPERIMENTAL SYSTEM": "ROCK1 (human)",
    "kinase still bound, per cent of control (%)": 42
  },
  {
    "QUERY SMILES": "N#C/C(=C1/Nc2ccccc2S1)c1ccnc(NCCc2cccnc2)n1",
    "EXPERIMENTAL SYSTEM": "ROCK1 (human)",
    "kinase still bound, per cent of control (%)": 37
  },
  {
    "QUERY SMILES": "CNC(=O)Nc1ccc(-c2nc(N3CC4CCC(C3)O4)c3cnn(C4CCC5(CC4)OCCO5)c3n2)cc1",
    "EXPERIMENTAL SYSTEM": "ROCK1 (human)",
    "kinase still bound, per cent of control (%)": 100
  },
  {
    "QUERY SMILES": "CCN1CCN(Cc2ccc(NC(=O)c3ccc(C)c(/C=C/c4cnc5[nH]ccc5c4OC)c3)cc2C(F)(F)F)CC1",
    "EXPERIMENTAL SYSTEM": "ROCK1 (human)",
    "kinase still bound, per cent of control (%)": 43
  },
  {
    "QUERY SMILES": "CCc1nc(-c2cccc(C)c2)c(-c2ccnc(NC(=O)c3ccccc3)c2)s1",
    "EXPERIMENTAL SYSTEM": "ROCK1 (human)",
    "kinase still bound, per cent of control (%)": 97
  }
]

Consider now this further compound.
Documented kinase still bound, per cent of control of CCOc1cc(N2CCC(O)CC2)ccc1Nc1ncc2c(n1)N(C)c1ccccc1C(=O)N2C : 100
